Taken from paper PMC12413083.

Record form. Attribute: IC50. Fill in for each entry.
targetSystem: equine serum butyrylcholinesterase (eqBuChE) (Equus caballus)
Construct: equine serum (Equus caballus) BuChE (eqBuChE); purchased Sigma-Aldrich C3389; host or cells: equine serum
Sequence (P81908 whole entry): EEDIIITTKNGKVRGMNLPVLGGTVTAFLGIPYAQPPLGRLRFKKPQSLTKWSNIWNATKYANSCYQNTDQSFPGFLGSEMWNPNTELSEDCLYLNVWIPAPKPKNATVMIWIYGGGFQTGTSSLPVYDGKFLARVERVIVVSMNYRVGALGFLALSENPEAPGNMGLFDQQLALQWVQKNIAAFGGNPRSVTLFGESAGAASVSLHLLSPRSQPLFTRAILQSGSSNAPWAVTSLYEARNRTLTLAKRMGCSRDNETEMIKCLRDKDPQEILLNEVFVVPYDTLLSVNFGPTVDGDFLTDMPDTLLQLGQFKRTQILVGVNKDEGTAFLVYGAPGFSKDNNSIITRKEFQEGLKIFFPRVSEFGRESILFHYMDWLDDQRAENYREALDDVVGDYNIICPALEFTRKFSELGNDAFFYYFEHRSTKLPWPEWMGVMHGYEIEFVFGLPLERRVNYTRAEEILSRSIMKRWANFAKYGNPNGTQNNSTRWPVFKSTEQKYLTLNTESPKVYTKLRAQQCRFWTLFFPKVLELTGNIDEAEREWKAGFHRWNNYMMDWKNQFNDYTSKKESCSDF
test: biochemical

compound="COC(=O)C1(O)c2ccccc2C(=O)C1(O)CC=C(C)C (centres unmarked) [Indanone derivative (5)]" recordedmetric=IC50 result="24.2 µM"

Kindly review the next compound as well.
# value lookup — system equine serum butyrylcholinesterase (eqBuChE) (Equus caballus), readout IC50, item CC(C)=CCC1=C(O)C(=O)c2ccccc2C1=O [Lapachol (1), Lapachol] 68.3 µM

---

targetSystem: Electrophorus electricus acetylcholinesterase (eeAChE) (Electrophorus electricus)
Construct: purchased Sigma-Aldrich C3389
test: biochemical
Record form. Attribute: IC50. Fill in for each entry.
Numbers only, in µM.

compound="COC(=O)C1(O)c2ccccc2C(=O)C1(O)CC=C(C)C (centres unmarked)" unitsymbol=µM result=53.2

Kindly review the next compound as well.
# lookup: IC50 of `CC(C)=CCC1=C(O)C(=O)c2ccccc2C1=O` 5.04

---

targetSystem: Electrophorus electricus acetylcholinesterase (eeAChE) (Electrophorus electricus, UniProt O42275)
Construct: purchased Sigma-Aldrich C3389
Sequence (O42275 24-633): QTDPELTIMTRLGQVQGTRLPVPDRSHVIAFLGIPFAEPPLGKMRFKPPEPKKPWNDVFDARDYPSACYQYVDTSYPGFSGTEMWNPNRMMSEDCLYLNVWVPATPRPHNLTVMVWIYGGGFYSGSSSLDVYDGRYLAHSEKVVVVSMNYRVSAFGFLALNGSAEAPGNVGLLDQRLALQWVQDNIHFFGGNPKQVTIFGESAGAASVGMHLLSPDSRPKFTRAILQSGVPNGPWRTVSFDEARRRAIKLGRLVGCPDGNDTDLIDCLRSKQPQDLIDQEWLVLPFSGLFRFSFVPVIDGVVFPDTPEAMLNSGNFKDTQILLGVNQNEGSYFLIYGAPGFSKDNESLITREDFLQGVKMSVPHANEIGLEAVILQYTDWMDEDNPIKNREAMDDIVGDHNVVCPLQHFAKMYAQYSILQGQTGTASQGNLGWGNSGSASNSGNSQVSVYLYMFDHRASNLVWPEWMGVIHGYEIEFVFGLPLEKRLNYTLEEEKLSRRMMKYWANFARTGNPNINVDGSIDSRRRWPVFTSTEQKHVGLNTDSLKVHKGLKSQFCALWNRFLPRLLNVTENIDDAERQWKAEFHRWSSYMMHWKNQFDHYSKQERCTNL
test: biochemical
testSettings: SI = IC50 of BChE/IC50 of AChE
# note: exactly 9 is not below, so it is false; use true for Selectivity Index (SI) strictly under it

Examples with answers:
compound="CC1(C)C=CC2=C(O1)C(=O)c1ccccc1C2=O [Dehydro-α-lapachone (4), Dehydro-α-lapachone]" category=false
compound="CC(C)=CCC1=C(O)C(=O)c2ccccc2C1=O [Lapachol (1), Lapachol]" category=false
compound="CC1(C)CCC2=C(O1)C(=O)c1ccccc1C2=O [α-Lapachone (2), α-Lapachone]" category=true

Lab log: compare recorded Selectivity Index (SI) with 9; is it strictly lower for CC(C)=C(C)C1CC2(C)OC3=C(C(=O)c4ccccc4C3=O)C3C2C12C(=O)c1ccccc1C3(O)C2=O (centres unmarked) [Peshawaraquinone (3), Peshawaraquinone] ? false

Lab log: compare recorded Selectivity Index (SI) with 9; is it strictly lower for COC(=O)C1(O)c2ccccc2C(=O)C1(O)CC=C(C)C (centres unmarked) [Indanone derivative (5)] ? true

---

targetSystem: equine serum butyrylcholinesterase (eqBuChE) (Equus caballus)
Construct: equine serum (Equus caballus) BuChE (eqBuChE); purchased Sigma-Aldrich C3389; host or cells: equine serum
test: biochemical
testSettings: Ellman's method, mean ± SEM, n = 3; read-out: IC50 (μM) ± SEM eqBuChE
Record form. Attribute: IC50. Fill in for each entry.
One number for each entry, in µM.

// worked examples, IC50 included
compound="CC1(C)C=CC2=C(O1)C(=O)c1ccccc1C2=O [Dehydro-α-lapachone (4), Dehydro-α-lapachone]" result=55.6
compound=CC1(C)CCC2=C(O1)C(=O)c1ccccc1C2=O result=39.1

Kindly review the next compound as well.
# lookup: IC50 of CC(C)=C(C)C1CC2(C)OC3=C(C(=O)c4ccccc4C3=O)C3C2C12C(=O)c1ccccc1C3(O)C2=O (stereo not drawn) 8.39

---

targetSystem: Electrophorus electricus acetylcholinesterase (eeAChE) (Electrophorus electricus, UniProt O42275)
Construct: purchased Sigma-Aldrich C3389
test: biochemical
testSettings: Ellman's method, mean ± SEM, n = 3; read-out: IC50 (μM) ± SEM (eeAChE)
Record form. Attribute: IC50. Fill in for each entry.
Answers are plain numbers, in µM.

molecule=CC1(C)CCC2=C(O1)C(=O)c1ccccc1C2=O result=11
molecule="CC(C)=C(C)C1CC2(C)OC3=C(C(=O)c4ccccc4C3=O)C3C2C12C(=O)c1ccccc1C3(O)C2=O (stereo not drawn)" result=0.9

# lookup: IC50 of CC1(C)C=CC2=C(O1)C(=O)c1ccccc1C2=O [Dehydro-α-lapachone (4), Dehydro-α-lapachone] 2.64
